# measurement_target: Cyclin E/CDK2 (Homo sapiens, UniProt P24941)
# Construct: The expressed protein was approximately 34 kDa in size; made in house; host or cells: SF9 insect cells (baculovirus co-infection)
# experiment_summary: Cyclin E/CDK2 in vitro kinase assay (SPA, 33P-ATP, biotinylated Histone H1 peptide)
# Assay type: biochemical
# protocol_conditions: recombinant cyclin E/CDK2 from SF9 cells; 8 point serial dilutions in duplicate; 1 hour at room temperature
quantity_name: pIC50
Schema: pIC50 number; meaning minus log10 of the concentration expressed in molar units.

Measured pIC50 for this entry "Clc1cnn2c(NCc3cncnc3)cc(-c3ccccc3)cc12" on Cyclin E/CDK2 (Homo sapiens, UniProt P24941): 7.11
